Each recorded value in this set is attributed to patent US9290459B1.

Molecular target: Human neutrophil elastase (Homo sapiens (Human), UniProt P08246)
Sequence (P08246 30-247): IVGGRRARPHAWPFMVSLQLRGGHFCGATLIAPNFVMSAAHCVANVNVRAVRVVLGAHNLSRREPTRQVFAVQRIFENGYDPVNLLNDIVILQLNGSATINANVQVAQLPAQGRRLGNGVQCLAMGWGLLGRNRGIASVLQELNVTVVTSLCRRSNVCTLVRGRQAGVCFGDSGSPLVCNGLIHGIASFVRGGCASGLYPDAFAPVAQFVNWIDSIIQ
Assay: Human Neutrophil Elastase Assay
Type: biochemical
Settings: human neutrophil elastase, substrate MeOSuc-Ala-Ala-Pro-Val-AMC 250 μM, pH 7.5; read-out: IC50
pIC50: −log10 of the molar value.
Result Type: pIC50

Look over these answered cases.
>  <Molecule>
CS(=O)(=O)c1cc(C#N)ccc1C1C2=C(CCC2=O)N(c2cccc(C(F)(F)F)c2)C(=O)N1CC(=O)O (stereo not shown)

>  <pIC50>
8.89

$$$$
>  <Molecule>
CS(=O)(=O)c1cc(C#N)ccc1[C@@H]1NC(=O)N(c2cccc(C(F)(F)F)c2)C2=C1C(=O)CC2 [Example 10B]

>  <pIC50>
7.01

$$$$
>  <Molecule>
N#Cc1ccc(C2NC(=O)N(c3cccc(C(F)(F)F)c3)C3=C2C(=O)CC3)cn1 (stereo not shown)

>  <pIC50>
6.70

$$$$
>  <Molecule>
CN1C(=O)N(c2cccc(C(F)F)c2)C2=C(C(=O)CC2)[C@@H]1c1ccc(C#N)cc1 [Example 26B]

>  <pIC50>
5.47

$$$$

(1) CN1C(=O)N(c2cccc(C(F)(F)F)c2)C2=C(C(=O)CC2)C1c1ccc(C#N)cn1 (stereo not shown)
(2) N#Cc1ccc([C@H]2C3=C(CCC3=O)N(c3cccc(C(F)F)c3)C(=O)N2C(=O)NCCCO)cc1 [Example 52B]
Prompt line: Which value of pIC50 is numerically greater: that of 1 or that of 2 ? Identify your pick by its label.
Response line: 1
(1: 7.57, 2: 6.21)

* * *

Form field: Efflux ratio (one value per entry).
Tested on: Caco-2 cells
Experiment: Drug transport across human Caco-2 cells
Type: in vitro ADME
Conditions: PEBA/PEAB, Caco-2
The response must contain the number and no unit.

>  <Molecule>
N#Cc1ccc(C2C3=C(CCC3=O)N(c3cccc(C(F)(F)F)c3)C(=O)N2C(=O)NCCCO)cc1 (stereo not drawn) [Example 7.3]

>  <Target>
Caco-2 cells

>  <Efflux ratio>
7.1

$$$$
>  <Molecule>
CC(C)(O)CCNC(=O)N1C(=O)N(c2cccc(C(F)(F)F)c2)C2=C(C(=O)CC2)C1c1ccc(C#N)cc1 (stereo not drawn) [Example 41.17]

>  <Target>
Caco-2 cells

>  <Efflux ratio>
3.5

$$$$

Entry N#Cc1ccc(C2C3=C(CCC3=O)N(c3cccc(C(F)(F)F)c3)C(=O)N2C(=O)NC2(CO)CC2)cc1 (stereo not drawn) [Example 41.5] — recorded Efflux ratio = 8.7

Entry C[C@H](CO)NC(=O)N1C(=O)N(c2cccc(C(F)(F)F)c2)C2=C(C(=O)CC2)C1c1ccc(C#N)cc1 (stereo partly drawn) [Example 41.4] — recorded Efflux ratio = 8.7

Entry CN1C(=O)N(c2cccc(C(F)(F)F)c2)C2=C(C(=O)CC2)C1c1ccc(C#N)cc1[S+](C)[O-] (single isomer, unassigned) [Example 30A] — recorded Efflux ratio = 11.1

Entry N#Cc1ccc(C2C3=C(CCC3=O)N(c3cccc(C(F)(F)F)c3)C(=O)N2C(=O)NC2CCOCC2)cc1 (stereo not drawn) [Example 41.16] — recorded Efflux ratio = 1.0

* * *

Biological target: Human neutrophil elastase (Homo sapiens (Human))
Assay: Human Neutrophil Elastase Assay
Format: biochemical
Details: human neutrophil elastase, substrate MeOSuc-Ala-Ala-Pro-Val-AMC 250 μM, pH 7.5; read-out: IC50
pIC50: −log10 of the molar value.
Result Type: pIC50

Look over these answered cases.
>  <Compound>
N#Cc1ccc(C2C3=C(CCC3=O)N(c3cccc(C(F)(F)F)c3)C(=O)N2CC(=O)O)cc1 (stereo not drawn)

>  <pIC50>
7.96

$$$$
>  <Compound>
CC(C)(O)CNC(=O)N1C(=O)N(c2cccc(C(F)(F)F)c2)C2=C(C(=O)CC2)C1c1ccc(C#N)cc1 (stereo not drawn)

>  <pIC50>
8.85

$$$$
>  <Compound>
CCS(=O)(=O)c1cc(C#N)ccc1[C@@H]1NC(=O)N(c2cccc(C(F)(F)F)c2)C2=C1C(=O)CC2 [Example 14B]

>  <pIC50>
7.48

$$$$
>  <Compound>
CNC(=O)N1C(=O)N(c2cccc(C(F)(F)F)c2)C2=C(C(=O)CC2)C1c1ccc(C#N)cn1 (stereo not drawn)

>  <pIC50>
8.40

$$$$

(P) N#Cc1ccc([C@H]2NC(=O)N(c3cccc(C(F)(F)F)c3)C3=C2C(=O)CC3)nc1
(Q) CNC(=O)N1C(=O)N(c2cccc(C(F)(F)F)c2)C2=C(C(=O)CC2)C1c1ccc(C#N)cc1F (stereo not drawn)
Prompt line: From the items above, decide which of P and Q has the lower pIC50 reading. Identify your pick by its label.
Response line: P

(P) N#Cc1ccc(C2NC(=O)N(c3cccc(C(F)F)c3)C3=C2C(=O)CC3)cc1 (stereo not drawn)
(Q) CS(=O)(=O)N1C(=O)N(c2cccc(C(F)(F)F)c2)C2=C(C(=O)CC2)C1c1ccc(C#N)cc1 (stereo not drawn)
Prompt line: From the items above, decide which of P and Q has the lower pIC50 reading. Identify your pick by its label.
Response line: P
(P: 7.43, Q: 8.29)

(1) Cc1cc(C#N)ccc1C1C2=C(CCC2=O)N(c2cccc(C(F)(F)F)c2)C(=O)N1C (stereo not drawn)
(2) N#Cc1ccc(C2NC(=O)N(c3cccc(C(F)(F)F)c3)C3=C2C(=O)CC3)nc1 (stereo not drawn)
Prompt line: Which value of pIC50 is numerically greater: that of 1 or that of 2 ? Identify your pick by its label.
Response line: 1
